Value source: patent US12098145B2

Listed below: EC50 values for each entry.
- target: TRPML1 (Homo sapiens)
- Construct: expressed in transfected cells; host or cells: HEK T-REx cells stably expressing GCaMP6f and TRPML1
- Sequence (Q9GZU1 whole entry): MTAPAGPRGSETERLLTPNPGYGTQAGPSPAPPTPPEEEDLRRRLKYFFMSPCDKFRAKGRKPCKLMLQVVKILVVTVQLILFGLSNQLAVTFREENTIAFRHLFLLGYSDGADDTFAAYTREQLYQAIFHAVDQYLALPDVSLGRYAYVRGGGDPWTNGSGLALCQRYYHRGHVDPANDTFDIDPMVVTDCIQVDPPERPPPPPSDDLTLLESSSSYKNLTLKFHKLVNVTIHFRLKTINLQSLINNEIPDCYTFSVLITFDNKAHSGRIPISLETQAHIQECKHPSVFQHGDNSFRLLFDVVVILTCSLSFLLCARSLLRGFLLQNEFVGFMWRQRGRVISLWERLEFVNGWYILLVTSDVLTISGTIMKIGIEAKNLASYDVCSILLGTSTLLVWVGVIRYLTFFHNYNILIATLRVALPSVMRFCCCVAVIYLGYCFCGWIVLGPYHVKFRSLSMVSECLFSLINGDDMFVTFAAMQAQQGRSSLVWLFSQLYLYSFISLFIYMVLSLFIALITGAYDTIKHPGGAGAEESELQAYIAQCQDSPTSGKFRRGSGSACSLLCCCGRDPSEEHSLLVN
- experiment-description: Cellular TRPML1 assay (FLIPR, GCaMP6f calcium read-out)
- Format: cell-based
- setup-conditions: HEKT-REx/GCaMP6f/TRPML1 cells, FLIPR TETRA, kinetic response over 300 seconds; read-out: TRPML1 FLIPR pEC50 (converted)

# annotated cases, reported EC50 shown
>>> experimental_result("CCc1oc(N2CC(CC)(OC)C2)nc1C(=O)Nc1cc(F)c(OC2CC3CC(C3)C2)c(F)c1 (centres unmarked) [Example 230]")
"10 to 1000 nM"
>>> experimental_result("O=C(Nc1ccc(OC2CCCC2(F)F)c(F)c1)c1nc(N2CCCC2)oc1CC(F)(F)F (centres unmarked) [Example 22]")
"10 to 1000 nM"
>>> experimental_result("O=C(Nc1cc(F)c(O[C@@H]2C[C@@H]3C[C@@H]3C2)c(F)c1)c1nc(N2CC3(CCCO3)C2)oc1CC(F)(F)F [Example 173]")
"10 to 1000 nM"

## Input // EC50 lookup, key: CCC1(OC)CN(c2nc(C(=O)Nc3cc(F)c(N4CCC5CC5C4)c(F)c3)c(CC(F)(F)F)o2)C1 (centres unmarked) [Example 204]
## Output 10 to 1000 nM
